ASSAY INFO: stimulators of insulin release from INS-1E, primary screen, cell-based, 5 mM glucose, NPC library (AID 1117329); also: reference of the scale not given here
PROTOCOL CONDITIONS: rat INS-1E insulin secretion, at 10 µM, stronger effect = higher value
READOUT NAME: insulin secretion stimulation (%)
Report as a plain number; the unit % is understood.

Please review the entries below; each comes with its answer.
COMPOUND: Nc1ccc(O)cc1
insulin secretion stimulation [%]: 1

COMPOUND: CC(C)(C)CC(=O)OCC(=O)[C@@]1(O)CC[C@H]2[C@@H]3CCC4=CC(=O)C=C[C@]4(C)[C@H]3[C@@H](O)C[C@@]21C
insulin secretion stimulation [%]: 0

COMPOUND: C[C@@H]1C[C@H]2[C@@H]3CCC4=CC(=O)C=C[C@]4(C)[C@@]3(F)[C@@H](O)C[C@]2(C)[C@@]1(O)C(=O)CO
insulin secretion stimulation [%]: 8.4

COMPOUND: CCCCCCCCCCCCOCCOCCOCCOCCOCCOCCOCCOCCOCCO
insulin secretion stimulation [%]: 0.8

COMPOUND: COc1ccccc1OC(=O)Oc1ccccc1OC
insulin secretion stimulation [%]: -2.4

# query: insulin secretion stimulation of entry N/C(=N\N=C\c1ccc(Cl)cc1)N/N=C/c1ccc(Cl)cc1
-0.1

# query: insulin secretion stimulation of entry CCCCN(CCN(CCCC)C(=O)N1CCOCC1)C(=O)N1CCOCC1
1.1

# query: insulin secretion stimulation of entry CCCCCCCCCCCC[N+](C)(C)Cc1ccccc1
1.9

# query: insulin secretion stimulation of entry CCCNCC(O)COc1ccccc1C(=O)CCc1ccccc1 (configuration not stated)
32.4

The reported numbers originate from PubChem BioAssay.
